Measured Hair Mass (mean ± SEM) Treated values are reported for all entries that follow.
- Test system: flank organ hair growth
- assayName: Golden Syrian hamster assay (flank organ hair growth, topical)
- Assay type: in vivo
- details: dose 10% in vehicle A, thirteen applications, treated flank organ, pH differs per compound (4.0-8.5)
measurementKind: Hair Mass (mean ± SEM) Treated

- compound: "COc1ccc(CCN(C)CCCC(C#N)(c2ccc(OC)c(OC)c2)C(C)C)cc1OC (centres unmarked) [Verapamil]"
  studySystem: "flank organ hair growth"
  measurementKind: "Hair Mass (mean ± SEM) Treated"
  result: "0.43 ± .05 mg"
- compound: "Cc1ccc(N(CC2=NCCN2)c2cccc(O)c2)cc1 [Phentolamine]"
  studySystem: "flank organ hair growth"
  measurementKind: "Hair Mass (mean ± SEM) Treated"
  result: "1.61 ± .22 mg"
- compound: "CN(C)CCCN1c2ccccc2CCc2ccccc21 [Imipramine]"
  studySystem: "flank organ hair growth"
  measurementKind: "Hair Mass (mean ± SEM) Treated"
  result: "0.94 ± .18 mg"
- compound: "CCCCCCCCCCCCCCCC(=O)OC[C@H](O)[C@H]1OC(=O)C(O)=C1O [L-Ascorbic acid 6-palmitate]"
  studySystem: "flank organ hair growth"
  measurementKind: "Hair Mass (mean ± SEM) Treated"
  result: "1.48 ± .14 mg"
- compound: "CSc1ccc2c(c1)N(CCC1CCCCN1C)c1ccccc1S2 (centres unmarked) [Thioridazine]"
  studySystem: "flank organ hair growth"
  measurementKind: "Hair Mass (mean ± SEM) Treated"
  result: "0.74 ± .07 mg"

Values from patent US5554608A
